B1: TPR t1 (parent)
chain: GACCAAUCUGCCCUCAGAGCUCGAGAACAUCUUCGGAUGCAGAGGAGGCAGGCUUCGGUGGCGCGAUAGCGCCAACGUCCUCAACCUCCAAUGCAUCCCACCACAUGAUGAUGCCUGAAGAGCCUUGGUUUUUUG

variants of: B1; assay: polymerase ribozyme fitness, log enrichment relative to wild type (log ratio); higher = more active; in vitro selection for triplet polymerase activity
Hi, to clarify the labels: 1 covers polymerase ribozyme fitness (log ratio) from -3 upward, 0 covers anything below -3.

{"mutant-name": "A26G C70U", "group-label": 1}
{"mutant-name": "G19U C124U", "group-label": 1}
{"mutant-name": "C56U C98U", "group-label": 1}
{"mutant-name": "G113U G120A U132A", "group-label": 0}
{"mutant-name": "A43U A121C", "group-label": 1}
{"mutant-name": "G77U C79U U106A", "group-label": 1}
{"mutant-name": "G61U U87G U106A", "group-label": 1}
{"mutant-name": "C13U C20G", "group-label": 0}
{"mutant-name": "G93U G120C", "group-label": 1}
{"mutant-name": "A18U G71C C104A", "group-label": 0}
{"mutant-name": "C11A C15A G51U G71A C99A G113C", "group-label": 0}
{"mutant-name": "A29U C76U U78A", "group-label": 1}
{"mutant-name": "U9A C22G G51A C56G C123A", "group-label": 0}
{"mutant-name": "C80A", "group-label": 1}
{"mutant-name": "U55C C82A", "group-label": 1}
{"mutant-name": "C64U U130A", "group-label": 1}
{"mutant-name": "G17A C62A U87C", "group-label": 0}
{"mutant-name": "G51C C56A G93A", "group-label": 0}
{"mutant-name": "G69U C72G C102U U125G", "group-label": 1}
{"mutant-name": "A2G U59G G122A U129C", "group-label": 1}
{"mutant-name": "A24U A83U C94U A111C G122A", "group-label": 0}
{"mutant-name": "C8G A37G G71A", "group-label": 1}
{"mutant-name": "G60U C115U", "group-label": 1}
